// data source = patent US20230118024A1

# testTarget: T1, HLA-DQ2.5/secalin 1 peptide complex on Ba/F3 cells (human; rye)
# T1 construct: also called Ba/F3-HLA-DQ2.5/secalin 1 peptide
# assayInfo: FACS
Reported FIG. 30 FACS value (IC17=0, DQN0139bb=100) values for the following binders.

| binder | result |
| --- | --- |
| DQN0356bb (antibody, human IgG1, kappa, V domains shown, also called DQN0356Hb; DQN0356Lb) VH: QEQLVESGGGLVKPEGSLTLTCTASGFSFSSDYSVCWVRQAPGKGLEWIGCIYTGSDITYYASWAKGRFTISKTSSTTVTLQMTSLTAADTATWFCARSWNGYGGYADLWGPGTLVTVSS VL: AYDMAQTPASVEVAVGGTVTIKCQASQSIDNYLAWYQQKPGQPPKLLIYWASTLASGVSSRFKGSGSGTQFSLTISDLECADAATYYCQQYYSNSNVVNTFGGGTKVEIKR | 74.5 |
| DQN0235ee (antibody, human IgG1, kappa, V domains shown, also called DQN0235He; DQN0235Le) VH: QQQLEESGGGLVKPGGTLTLTCKAGIDFSTYYYMCWVRQAPGKRPEWIACIFDGDGSTYYASWVNGRFTISKASSTTVTLRMTSLTAADTATYFCARSAGGSSSFGYFNLWGPGTLVTVSS VL: AYDMTQTPSSVSAAVGGTVTIKCQASQSISSSYLAWYHQKPGQSPKLLIYSASTLASGVPSRFKGSGSGTEFTLTISDLACADAATYYCQSYYYFSSNAWHTFGGGTKVEIKR | 73.4 |
| DQN0370hh (antibody, human IgG1, kappa, V domains shown, also called DQN0370Lh) VH: QSLEESGGGLVKPGGPLTLTCTASGFSFSSAYYMCWVRQAPGKGLEWIACIYVGSGSTYYTSWAKGRFTISKVSSTTMTLQMTSLTAADTATYFCARDPLIYYYYGELNLWGPGTLVTVSS VL: AVVLTQTASPVSAPVGGTVTIKCQASEDIYSNLAWYQQKPGQRPKVLIYSASTLASGVSSRFKGSRSGTEYTLSITDLGCADAATYYCQAYYDIGGVTFGGGTKVEIKR | 79.2 |

Next:
# get_value(readout='FIG. 30 FACS value (IC17=0, DQN0139bb=100)', item= DQN0271hh (antibody, human IgG1, kappa, V domains shown, also called DQN0271Lh) VH: QSLEESGGGLVKPGASLTLTCKASGFSFSSGYYMCWVRQAPGKGLEWIACIYAGSPDLTYYATWAKGRLTISTTSSTTVTLQLTSLTAADTATYFCARDPGNWGGYDDVRLWGPGTLVTVSS VL: AQVLTQTPSPVSAAVGGTVTISCQSSQSIYSNYLSWFQQKTGQPPKLLIYRASTLASGVPSRFKGSGSGTEFTLTISGVECDDAATYYCQGYYSGAIWTFGGGTKVEIKR ) 65.3
